Tested on: K-562 leukemia
ASSAY_NAME: NCI-60 one-dose screen, 48 h (100 = growth as untreated, 0 = no growth, -100 = all killed)
CONDITION_SET: 10 µM unless noted
About 83,000 compounds went through this panel and 20% of them were active in at least one assay; those are over-represented in the sample as a whole.
Could you label it Condition met if measured growth is 90% or higher, and Condition not met otherwise?

SMILES_TEXT	CAT
COc1ccc(-c2nc(SCCC(C)C)nc(N/N=C\c3cccc([N+](=O)[O-])c3)c2C#N)cc1	Condition not met
Cn1cc2c(c1)-c1nc(Nc3ccccc3)ncc1CC2	Condition not met
Cc1ccc(S(=O)(=O)Oc2cc(OS(=O)(=O)c3ccc(C)cc3)cc(OS(=O)(=O)c3ccc(C)cc3)c2)cc1	Condition met
O=C(CCCCCCSc1nc(-c2ccccc2)cc(-c2ccc(Cl)cc2)n1)NO	Condition not met
Cc1ccc2nc(NC(=O)CSc3nc(-c4ccccc4)c(C#N)c(=O)n3Cc3ccccc3)sc2c1	Condition not met
C[n+]1cc2cc(C(N)=O)[nH]c3c(=N)c(Cl)c(N)c1c23	Condition not met
C#CCOc1nc(C)cc(C)c1C#N	Condition met
COc1cccc(C(=O)NCCCNc2cc(-c3cn(-c4ccccc4)nc3-c3cccc(OC)c3)ccn2)c1	Condition not met
CCCCCc1nc2c(c3c1CCCC3)CCCC2	Condition not met
N=c1sc(Cc2ccc(Cl)cc2)cn1CC(=O)c1ccc(F)cc1	Condition not met
